Measured logP values are reported for all entries that follow.
Form rule: numeric answer, no unit written next to it.

Some compounds with recorded logP:
>  <Smiles Repr>
Nc1ccc(S(=O)(=O)c2ccccc2)cc1

>  <Quantitative Readout>
1.76

$$$$
>  <Smiles Repr>
Nc1ccc(S(=O)(=O)c2ccc(Cl)cc2)cc1

>  <Quantitative Readout>
2.57

$$$$
>  <Smiles Repr>
COc1ccc(S(=O)(=O)c2ccc(N)cc2)c(OC)c1

>  <Quantitative Readout>
1.64

$$$$
>  <Smiles Repr>
Nc1ccc(S(=O)(=O)c2ccc([N+](=O)[O-])cc2)cc1

>  <Quantitative Readout>
2.04

$$$$

Problem: What value of logP has been reported for the following compound? Nc1ccc(S(=O)(=O)c2ccccc2N)cc1
Solution: 1.56

Problem: Try the compound Nc1ccc(S(=O)(=O)c2ccc(O)cc2)cc1
Solution: 1.57

Problem: Try the compound Nc1ccc(S(=O)(=O)c2ccc(Br)cc2)cc1
Solution: 2.85

Problem: Try the compound COc1ccc(S(=O)(=O)c2ccc(N)cc2)cc1
Solution: 1.96

Problem: Try the compound N#Cc1ccc(S(=O)(=O)c2ccc(N)cc2)cc1
Solution: 1.63

Problem: Try the compound CCNc1ccc(S(=O)(=O)c2ccc(N)cc2)cc1
Solution: 1.98

Problem: Try the compound NC(=O)c1ccc(S(=O)(=O)c2ccc(N)cc2)cc1
Solution: 0.9
